protocol: NCI Yeast Anticancer Drug Screen. Data for the bub3 strain (AID 167)
assay.setup: S. cerevisiae bub3 mutant strain, at 50.0 µM
About 79,000 compounds went through this panel and 15% of them were active in at least one assay; those are over-represented in the sample as a whole. Activity calls are given as the source filed them. No stated cut-off is given here; in the data, active means growth inhibition above about 70%; inactive means the rest.
Classes used: TRUE = active, FALSE = inactive

INSERT INTO results (compound, label_value) VALUES
  ('CCN(Cc1ccccc1)CC(O)c1ccc(Cl)c(Cl)c1 (stereo not given)', 'TRUE'),
  ('O=C([O][Hg][CH2]C1CC(O)CC([CH2][Hg][O]C(=O)c2ccccc2)O1)c1ccccc1 (stereo not given)', 'TRUE'),
  ('CC#C[P+](c1ccccc1)(c1ccccc1)c1ccccc1', 'TRUE'),
  ('CCC1(O)C(=O)OCc2c1cc1n(c2=O)Cc2cc3cc([N+](=O)[O-])ccc3nc2-1 (stereo not given)', 'FALSE'),
  ('[Ni+2].[SH2+]C([SH2+])=Nc1ccccc1.[SH2+]C([SH2+])=Nc1ccccc1.c1ccc(C[P+](c2ccccc2)(c2ccccc2)c2ccccc2)cc1', 'TRUE'),
  ('O=c1ccn(C2OC(CO)C(O)C2O)c(=O)[n]1[Hg][c]1ccccc1 (stereo not given)', 'TRUE'),
  ('N#Cc1ccc(N=Cc2c([O-])ccc3ccccc23)cc1.[C-]#[O+].[C-]#[O+].[Ir]', 'TRUE'),
  ('Clc1c(CI)ccc(CI)c1Cl', 'TRUE'),
  ('Cc1ccc2c(c1)C1(C)c3cc(C)ccc3SP1S2 (stereo not given)', 'FALSE'),
  ('Oc1cccc2cccnc12', 'TRUE');

---

protocol: NCI Yeast Anticancer Drug Screen. Data for the sgs1 mgt1 strain (AID 161);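 further: 0% = growth of cultures given vehicle only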
assay.setup: S. cerevisiae sgs1 mgt1 strain, at 50.0 µM, hits give high values
The panel holds about 79,000 compounds, 15% with a hit somewhere; the sample as a whole holds those more often.
Rule: growth inhibition under 90% gives NOT MET, otherwise MET.

INSERT INTO assay_data (compound, label_value) VALUES
  ('[O]=[Sb][c]1ccc(Cl)cc1', 'MET'),
  ('Oc1cccnc1[Se]', 'MET'),
  ('O=[N+]([O-])c1ccc(-n2nc3ccc4c(no[n+]4[O-])c3[n+]2[O-])c([N+](=O)[O-])c1', 'NOT MET'),
  ('COC(=O)C(Cl)(Br)CCl (stereo not given)', 'NOT MET'),
  ('c1ccc(NC2=NCCN2)nc1', 'NOT MET'),
  ('CCC[CH2][Sn]1([CH2]CCC)[O]CC(CN(C)Cc2ccccc2)[O]1 (stereo not given)', 'NOT MET'),
  ('c1ccc2c(NCCCCCCNc3c4ccccc4nc4ccccc34)c3ccccc3nc2c1', 'NOT MET'),
  ('Cc1cc(C)c(O)c(C)c1.[Hg]', 'MET'),
  ('O=S(=O)(c1ccccc1)N1C2C3CCC(CC3)C21 (stereo not given)', 'NOT MET'),
  ('CC[C@@]1(O)C(=O)OCc2c1cc1n(c2=O)Cc2cc3cc4c(cc3nc2-1)OCO4', 'NOT MET'),
  ('C/C(=N\N)C(CN1CCCCC1)C(c1ccccc1)c1c(O)c2ccccc2oc1=O (stereo not given)', 'NOT MET'),
  ('Cc1c(N)nc([C@H](CC(N)=O)NC[C@H](N)C(N)=O)nc1C(=O)N[C@H](C(=O)N[C@H](C)[C@@H](O)CC(=O)N[C@H](C(=O)NC(O[C@@H]1O[C@@H](C)[C@@H](N)[C@@H](O)[C@H]1O)C(O)c1nc(-c2nc(C(=O)NCCCCN)cs2)cs1)[C@@H](C)O)[C@@H](O[C@@H]1O[C@@H](CO)[C@@H](O)[C@H](O)[C@@H]1O[C@H]1O[C@H](CO)[C@@H](O)[C@H](OC(N)=O)[C@@H]1O)c1c[nH]cn1 (stereo not given in full)', 'MET'),
  ('CSc1ccccc1[As](C)C', 'MET'),
  ('CC(=O)Oc1ccc(N=C2C=C(Cl)C(=O)C(Cl)=C2)cc1', 'NOT MET'),
  ('C[n+]1c(/C=C/c2ccc(O)c(O)c2)[se]c2ccccc21', 'NOT MET'),
  ('CC[CH2][Sn]([Br])([Br])[CH2]CC', 'NOT MET');

---

protocol: NCI Yeast Anticancer Drug Screen. Data for the rad50 strain (AID 155);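 further: 0% = growth of vehicle-only cultures of the same strain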
assay.setup: S. cerevisiae rad50 strain growth inhibition; at 5.0 µM (retest, dose inferred, filed as 0.5); hits give high values
Compounds without any hit were thinned out: in the full panel of roughly 79,000, 15% have a hit.
assay.readout: growth inhibition (%)

INSERT INTO measurements (compound, assay_result) VALUES
  ('CC(C)(C)C[CH2][Hg][Cl]', 99),
  ('N=C(N)c1ccccc1', 12),
  ('CCOP(=O)(OCC)/C(C#N)=C/c1cccc(Br)c1', 19),
  ('CSc1ccc(NC(=O)C2c3[nH]c4ccccc4c3C3CCC(C(C)(C)C)CC3C2C(=O)O)cc1 (configuration not stated)', 0),
  ('CCC[CH2][Sn]([Cl])([CH2]Cl)[CH2]CCC', 97),
  ('CC(=O)C(CN(C)C)C(c1ccccc1)c1c(O)c2ccccc2oc1=O (configuration not stated)', 22),
  ('CC1(C)OC2OC3C(CN(CCCl)Cc4ccccc4)OC(c4ccccc4)OC3C2O1 (configuration not stated)', 5),
  ('CC(=O)NC1C(S[As](C)C)OC(COC(C)=O)C(OC(C)=O)C1OC(C)=O (configuration not stated)', 59),
  ('O=[N+]([O-])[O][Tl]([c]1ccccc1)[c]1ccccc1', -4),
  ('CCCNC(=O)Nc1ccc2c(c1)Cc1cc(N(CCCl)CCCl)ccc1-2', 2),
  ('CCOP(=O)(CC(C)P(=O)(OCC)OCC)OCC.C[CH2][Sn]([Cl])([Cl])[CH2]C (configuration not stated)', 16),
  ('CCCCCCCCCCCCN1CC1', -26),
  ('COC(COC(N)=O)C1=C(N2CC2)C(=O)C(C)=C(N2CC2)C1=O (configuration not stated)', 47),
  ('COc1cc(C2c3cc4c(cc3[C@@H](Nc3ccc(F)cc3)C3COC(=O)[C@H]23)OCO4)cc(OC)c1O (some centres not stated)', 96),
  ('ClCc1nc2ccccc2[nH]1', 10),
  ('[Cl][Sn]([c]1ccccc1)[c]1ccccc1', 41),
  ('O=S(=O)([O-])[O-].[Fe+2].c1ccc(/C(=N\Nc2ccccn2)c2ccccn2)cc1', 3),
  ('CC[C@@]1(O)C[C@H](OC2CC(N(C)C)C(O)C(C)O2)c2c(O)c3c(c(O)c2[C@H]1OC1CC(N(C)C)C(O)C(C)O1)C(=O)c1cccc(O)c1C3=O (some centres not stated)', 16),
  ('Nc1nc(CCl)cs1', -2),
  ('CC(=O)OCC1OC([S-])C(OC(C)=O)C(OC(C)=O)C1OC(C)=O.CC[PH+](CC)CC.CC[PH+](CC)CC.[Au].[Au] (configuration not stated)', 100),
  ('COc1ccc(CNCCc2ccc(O)c(OC)c2)cc1O', 1),
  ('S=C=Nc1cccc(Cl)c1', -17);

---

growth inhibition reference
protocol: NCI Yeast Anticancer Drug Screen. Data for the mec2-1 strain (AID 157)
assay.setup: S. cerevisiae mec2-1 strain, at 50.0 µM, hits give high values
About 79,000 compounds went through this panel and 15% of them were active in at least one assay; those are over-represented in the sample as a whole.
assay.readout: growth inhibition (%)

INSERT INTO assay_data (molecule, assay_readout, assay_result) VALUES
  ('O=C1CN2C(Cl)(Cl)C2(c2ccccc2)c2cc(Cl)ccc2N1CC1CC1 (configuration not stated)', 'growth inhibition', 91.3),
  ('CC(C)(C)C[CH2][Hg][Cl]', 'growth inhibition', 99.7),
  ('CCOP(=S)(OCC)OC(c1ccc(Cl)cc1)c1ccc(Cl)cc1', 'growth inhibition', 6.2),
  ('CC1CC(Br)C(=O)O1 (configuration not stated)', 'growth inhibition', 92.2),
  ('Cc1ccc2ccccc2c1NC1=NCCO1', 'growth inhibition', -10.9),
  ('N=P(c1ccccc1)(c1ccccc1)c1ccccc1.[O]=[Cr](=[O])([OH])[O][Cr](=[O])(=[O])[OH]', 'growth inhibition', 26.4),
  ('Cc1ccc(C(Cc2ccc(N3C(N)=NC(N)=NC3(C)C)cc2)C(=O)Nc2ccc(S(=O)(=O)F)cc2)cc1 (configuration not stated)', 'growth inhibition', 99.6),
  ('NC(Cc1c[nH]c2ccccc12)P(=O)(O)O (configuration not stated)', 'growth inhibition', 13.4),
  ('COC1OC(COC(C)=O)C(OC(C)=O)C(OC(C)=O)[CH]1[Hg][I] (configuration not stated)', 'growth inhibition', 99.6),
  ('Oc1cccc2nc3ccccc3nc12', 'growth inhibition', 68.5),
  ('COC(=O)C(F)C(Br)C(=O)OC (configuration not stated)', 'growth inhibition', 93),
  ('CN(C)C(=O)Oc1c(Cl)cc(Cl)c(Cl)c1Cl', 'growth inhibition', -10.9),
  ('CCC[CH2][Sn]([CH2]CCC)([S]C1=NCCS1)[S]C1=NCCS1', 'growth inhibition', 90.7),
  ('O=[N+]([O-])c1c(Cl)sc(Cl)c1[N+](=O)[O-]', 'growth inhibition', 99.7),
  ('CC(C)CCC[C@@H](C)[C@H]1CC[C@H]2[C@@H]3CC[C@H]4C[C@H](NCCCl)CC[C@]4(C)[C@H]3CC[C@]12C', 'growth inhibition', 43.6),
  ('CCC[CH2][Sn]([Cl])([Cl])[CH2]CCC', 'growth inhibition', 99.3),
  ('O=[N+]([O-])C(Br)CO (configuration not stated)', 'growth inhibition', 89),
  ('c1ccc2c(NCCCCCCNc3c4ccccc4nc4ccccc34)c3ccccc3nc2c1', 'growth inhibition', 73.5),
  ('N#CC(C#N)=Cc1ccc([N+](=O)[O-])s1', 'growth inhibition', 99.6),
  ('NC1=C(c2nc(-c3ccccc3)cs2)C(c2ccc(Br)cc2)c2c(c3ccccc3oc2=O)O1 (configuration not stated)', 'growth inhibition', 29.2),
  ('CC1CN=C(Nc2ccccc2)S1 (configuration not stated)', 'growth inhibition', 88.8),
  ('COc1ccc(CC2C(=O)NC(C)C(=O)N(C)C3C(=O)N(C)C(Cc4ccc(O)c(c4)Oc4ccc(cc4)C3O)C(=O)NC(C)C(=O)NC(C)C(=O)N2C)cc1 (configuration not stated)', 'growth inhibition', 47.5),
  ('O=C(CCl)c1ccc(O)cc1', 'growth inhibition', 98.2),
  ('O=C(O)C1C2CCC(C2)C1c1ccccc1 (configuration not stated)', 'growth inhibition', 14.4),
  ('COc1cc(C=Nc2cc(Br)c(OC)c(Br)c2)ccc1N(CCCl)CCCl', 'growth inhibition', 31.4),
  ('NC(=O)CNCc1ccc([As]=O)cc1 (configuration not stated)', 'growth inhibition', 50.1),
  ('CC1(C)N=C(N)N=C(N)N1CCCOc1ccc(NC(=O)c2ccc(S(=O)(=O)F)cc2)cc1', 'growth inhibition', 49.5),
  ('CC1=C[n+]2cc(C)ccc2Sc2c1ccc1ccccc21', 'growth inhibition', 74.7),
  ('O=[C-]CCCCCC[C-]=O.[C-]#[O+].[C-]#[O+].[C-]#[O+].[C-]#[O+].[Fe+6].[Fe+6].[c-]1[c-][c-][cH-][c-]1.[c-]1[c-][c-][cH-][c-]1', 'growth inhibition', 98.5),
  ('CNC(=O)N1CN(c2ccccc2)C2(CCN(CCCC(=O)c3ccc(F)cc3)CC2)C1=O', 'growth inhibition', 37.9),
  ('CN1C(=O)CC[C@@]2(C)C1=CC[C@H]1[C@@H]3CC[C@H](O)[C@@]3(C)CC[C@@H]12', 'growth inhibition', 14.9),
  ('O=C(c1ccc(Br)cc1)C1C(c2ccccc2)N1C1CCCCC1 (configuration not stated)', 'growth inhibition', 96.6),
  ('O=C(O)/C=C\c1c[nH]c2ccccc12', 'growth inhibition', 38.3),
  ('O=[N+]([O-])c1ccc(C=Cc2ccccc2)cc1.[C-]#[O+].[C-]#[O+].[C-]#[O+].[Cr]', 'growth inhibition', 79.8),
  ('[Cl][Pt+2][Cl].[NH-]C1CCCC2CCC[N-]C12 (configuration not stated)', 'growth inhibition', 60.4),
  ('N#C[SH2+].N#C[SH2+].N#C[SH2+].N#C[SH2+].[Cu+2].c1ccc(C[P+](c2ccccc2)(c2ccccc2)c2ccccc2)cc1', 'growth inhibition', 97.8),
  ('c1cc[c]([Pb]([c]2ccccc2)[c]2ccccc2)cc1.c1cc[c]([Pb]([c]2ccccc2)[c]2ccccc2)cc1', 'growth inhibition', 99.5),
  ('CCOP(=O)(O)C(Nc1ccc(N=Nc2ccccc2)cc1)c1cccc(C(Nc2ccc(N=Nc3ccccc3)cc2)P(=O)(O)OCC)c1 (configuration not stated)', 'growth inhibition', 47.6),
  ('COc1ccc(CNCCc2ccc(O)c(OC)c2)cc1O', 'growth inhibition', -2.8),
  ('Cc1ccc(N=P(c2ccccc2)(c2ccccc2)c2ccccc2)cc1.[I][Hg][I]', 'growth inhibition', 99.7),
  ('Oc1c(Cl)cc(-c2cc(Cl)c(O)c(Cl)c2)cc1Cl', 'growth inhibition', 89),
  ('CCOCCOC(=O)Cc1ccccc1', 'growth inhibition', 98.3);
